assay-procedure: Metabolic stability in mouse plasma
Assay type: in vitro ADME
condition-summary: 10 μM, 37° C., 60 min
quantity: Percentage remaining (%)
Answer with a number only, understood to be in %.

Observe how each entry below is paired with its result.
INSERT INTO assay_data (compound, quantity, result_number) VALUES
  ('CC(C)OC(=O)OC(C)OC(=O)C(CCC(=O)O)CP(=O)(OC(C)OC(=O)OC(C)C)OC(C)OC(=O)OC(C)C (centres unmarked)', 'Percentage remaining', 0),
  ('CCOC(=O)CCC(CP(=O)(OCOC(=O)C(C)(C)C)OCOC(=O)C(C)(C)C)C(=O)OCC (centres unmarked)', 'Percentage remaining', 0),
  ('CCCCOC(=O)c1ccccc1OP(=O)(CC(CCC(=O)OC)C(=O)OC)Oc1ccccc1C(=O)OCCCC (centres unmarked)', 'Percentage remaining', 1),
  ('COC(=O)CCC(CP(=O)(OCOC(=O)OC(C)C)OCOC(=O)OC(C)C)C(=O)OC (centres unmarked)', 'Percentage remaining', 0.4),
  ('COC(=O)CCC(CP(=O)(OCOC(=O)C(C)(C)C)OCOC(=O)C(C)(C)C)C(=O)OC (centres unmarked)', 'Percentage remaining', 0);

Find the recorded Percentage remaining belonging to COC(=O)CCC(CP(=O)(O)O)C(=O)OC (centres unmarked) and report it.
101

For CCOC(=O)[C@H](Cc1ccccc1)NP(=O)(CC(CCC(=O)OC)C(=O)OC)N[C@@H](Cc1ccccc1)C(=O)OCC (some centres unmarked) then?
1

For CCOC(=O)CCC(CP(=O)(O)O)C(=O)OCC (centres unmarked) then?
83

The origin of these recorded values is patent US9988407B2.
